- protocol: Cytotoxicity against human NCI-ADR-RES cells after 2 days by sulforhodamine B assay
- Format: functional
- conditionNotes: 48 h
measurementLabel: TGI (µM)
// return numeric value only (unit: µM, not printed)

INSERT INTO results (samplesmiles, quantitativereadout) VALUES
  ('CCC(=C(c1ccc(OCCN(C)C)cc1)c1ccc(OC(=O)CCCCC(=O)C2=C(C)/C(=C/c3[nH]c(-c4ccc[nH]4)cc3OC)N=C2C)cc1)c1ccccc1', 46.8);

Could you now consider this next compound?
Specify measured TGI for CC/C(=C(/c1ccc(OCCN(C)C)cc1)c1ccc(OC(=O)CCC(=O)C2=C(C)/C(=C/c3[nH]c(-c4ccc[nH]4)cc3OC)N=C2C)cc1)c1ccccc1 . 16.1

Values from ChEMBL document CHEMBL2417509
